assay-info: Cytotoxicity against human MT4 cells assessed as reduction in cell viability incubated for 5 days by MTT assay
Assay type: toxicity, cell-based
particulars: time 5 day
readout-type: CC50 at 120 h (µM)
Just the number please, in µM, no unit attached.

CCOC(=O)c1cnc(NC2CCN(Cc3ccccc3C#N)CC2)nc1Oc1c(C)cc(-c2ccc(C#N)cc2)cc1C: 196
CCOC(=O)c1cnc(NC2CCN(Cc3ccc(F)cc3F)CC2)nc1Oc1c(C)cc(-c2ccc(C#N)cc2)cc1C: 176
CCOC(=O)c1cnc(NC2CCN(Cc3ccc(Cl)cc3)CC2)nc1Oc1c(C)cc(-c2ccc(C#N)cc2)cc1C: 141
CCOC(=O)c1cnc(NC2CCN(Cc3cccc(C(=O)NC)c3)CC2)nc1Oc1c(C)cc(-c2ccc(C#N)cc2)cc1C: 20.4
CCOC(=O)c1cnc(NC2CCN(Cc3ccccc3F)CC2)nc1Oc1c(C)cc(-c2ccc(C#N)cc2)cc1C: 189

Which CC50 at 120 h is listed for CCOC(=O)c1cnc(NC2CCN(Cc3ccc(F)c(F)c3)CC2)nc1Oc1c(C)cc(-c2ccc(C#N)cc2)cc1C ?
194

Request the reported CC50 at 120 h associated with CCOC(=O)c1cnc(NC2CCN(Cc3ccc(OC)cc3)CC2)nc1Oc1c(C)cc(-c2ccc(C#N)cc2)cc1C
125

Item under review: CCOC(=O)c1cnc(NC2CCN(Cc3cccc(C(N)=O)c3)CC2)nc1Oc1c(C)cc(-c2ccc(C#N)cc2)cc1C . Reported CC50 at 120 h?
11.5

# lookup: CC50 at 120 h of CCOC(=O)c1cnc(NC2CCN(Cc3ccc(S(=O)(=O)NC)cc3)CC2)nc1Oc1c(C)cc(-c2ccc(C#N)cc2)cc1C
10.9

// query CC50 at 120 h value for entry CCOC(=O)c1cnc(NC2CCN(Cc3ccc(C(N)=O)cc3)CC2)nc1Oc1c(C)cc(-c2ccc(C#N)cc2)cc1C
191

Reported CC50 at 120 h, compound CCOC(=O)c1cnc(NC2CCN(Cc3ccc(CO)cc3)CC2)nc1Oc1c(C)cc(-c2ccc(C#N)cc2)cc1C : ____
192

----------
experimental-system: Human immunodeficiency virus type 1 reverse transcriptase (Human immunodeficiency virus 1)
assay-info: Inhibition of recombinant wild-type HIV-1 reverse transcriptase incubated for 40 mins by fluorescence based assay
Response field label: string, one of TRUE (IC50 strictly below 600 nM) or FALSE.

Use the examples below as a reference point.
Cc1cc(/C=C/C#N)cc(C)c1Nc1ccnc(Nc2ccc(C#N)cc2)n1: TRUE
CCOC(=O)c1cnc(NC2CCN(Cc3ccc(OC)cc3)CC2)nc1Oc1c(C)cc(-c2ccc(C#N)cc2)cc1C: FALSE
CCOC(=O)c1cnc(NC2CCN(Cc3ccccc3F)CC2)nc1Oc1c(C)cc(-c2ccc(C#N)cc2)cc1C: FALSE

Determine if CCOC(=O)c1cnc(NC2CCN(Cc3ccc(F)c(F)c3)CC2)nc1Oc1c(C)cc(-c2ccc(C#N)cc2)cc1C shows IC50 strictly lower than 600 nM.
TRUE

Just wondering, is IC50 of CCOC(=O)c1cnc(NC2CCN(Cc3ccccn3)CC2)nc1Oc1c(C)cc(-c2ccc(C#N)cc2)cc1C below 600 nM?
FALSE

Is 600 nM strictly greater than the molecule's reported IC50? molecule: CCOC(=O)c1cnc(NC2CCN(Cc3ccc(OC(F)(F)F)cc3)CC2)nc1Oc1c(C)cc(-c2ccc(C#N)cc2)cc1C
FALSE

Lab log: compare recorded IC50 with 600 nM; is it strictly lower for CCOC(=O)c1cnc(NC2CCN(Cc3ccc(CO)cc3)CC2)nc1Oc1c(C)cc(-c2ccc(C#N)cc2)cc1C ?
TRUE
